- target.entity: N-terminally FLAG-tagged PARP2 (amino acids 1-583) (Homo sapiens, UniProt Q9UGN5)
- Construct: N-terminally FLAG-tagged PARP2 (amino acids 1-583)
- Sequence (Q9UGN5 whole entry, the tested form may be a part): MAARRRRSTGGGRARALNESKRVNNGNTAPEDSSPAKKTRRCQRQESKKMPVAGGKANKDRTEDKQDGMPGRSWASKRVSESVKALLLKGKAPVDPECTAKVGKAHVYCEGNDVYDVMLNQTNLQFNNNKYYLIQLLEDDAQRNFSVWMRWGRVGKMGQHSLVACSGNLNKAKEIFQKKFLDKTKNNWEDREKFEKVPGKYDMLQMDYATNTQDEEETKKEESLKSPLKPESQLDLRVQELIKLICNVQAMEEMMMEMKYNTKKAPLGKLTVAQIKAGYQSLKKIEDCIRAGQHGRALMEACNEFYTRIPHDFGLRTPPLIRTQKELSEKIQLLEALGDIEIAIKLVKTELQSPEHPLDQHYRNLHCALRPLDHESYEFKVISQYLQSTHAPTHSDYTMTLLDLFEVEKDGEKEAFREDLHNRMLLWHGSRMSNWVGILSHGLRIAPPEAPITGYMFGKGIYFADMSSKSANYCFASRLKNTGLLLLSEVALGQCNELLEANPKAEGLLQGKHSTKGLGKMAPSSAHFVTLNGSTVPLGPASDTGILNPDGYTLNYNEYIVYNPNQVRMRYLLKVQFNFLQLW
- assay.summary: PARP2 probe displacement HTRF assay
- Assay type: binding
- study.conditions: binned Kd, PARP2 probe displacement HTRF
measure.name: Kd

Hello, I would appreciate it if you could give Kd for each entry below.
1. CNC(=O)c1ccc(N2CCC(N3CCC(c4nc5cccc(C(F)(F)F)c5c(=O)[nH]4)C3)CC2)cn1 (single isomer, unassigned) [Compound 86b]
2. CNC(=O)c1ccc(N2CCC(N3CCC(c4cc5[nH]nc(C(F)(F)F)c5c(=O)[nH]4)C3)CC2)cn1 (single isomer, unassigned) [Compound 194b]
3. CNC(=O)c1ccc(N2CCC(N3CCC(c4cc5cccc(F)c5c(=O)[nH]4)C3)CC2)c(C)n1 (single isomer, unassigned) [Compound 206a]
4. CNC(=O)c1ccc(N2CCC(N3CCOC(c4nc5ccccc5c(=O)[nH]4)C3)CC2)cn1 (single isomer, unassigned) [Compound 58a]
5. CNC(=O)c1ccc(N2CC(CN3CCC(c4nc5ccccc5c(=O)[nH]4)CC3)C2)cn1
6. CNC(=O)c1ccc(N2CCC(N3CCC(c4nc5c(C(F)(F)F)cccc5c(=O)[nH]4)C3)CC2)cn1 (single isomer, unassigned) [Compound 178b]
7. CNC(=O)c1ccc(N2CCC(N3CCC(c4nc5ccccc5c(=O)[nH]4)C3)CC2)c(Cl)n1 (racemic)
8. O=C(NCC(F)(F)F)c1ccc(N2CCC(N3CCCC(c4nc5ccccc5c(=O)[nH]4)C3)CC2)cn1 (single isomer, unassigned) [Compound 115b]

Solution:
1. < 0.01 µM
2. 0.01 to 0.1 µM
3. 0.1 to 1 µM
4. > 10 µM
5. 0.1 to 1 µM
6. 1 to 10 µM
7. 1 to 10 µM
8. 1 to 10 µM

Batch request: Kd per item, same order as input.
1. CNC(=O)c1ccc(N2CCC(CN3CCC(c4ncc(C(F)(F)F)c(=O)[nH]4)CC3)CC2)cn1
2. CNC(=O)c1ccc(N2CCC(N3CCC(c4nc5ccccc5c(=O)[nH]4)C3)CC2)cc1 (single isomer, unassigned) [Compound 80a]
3. N#Cc1ccc(N2CCC(N3CCCC(c4nc5ccccc5c(=O)[nH]4)C3)CC2)cc1 (single isomer, unassigned) [Compound 79b]
4. CNC(=O)c1ccc(OCCN2CCC(c3nc4ccccc4c(=O)[nH]3)C2)cn1 (single isomer, unassigned) [Compound 62b]

Solution:
1. > 10 µM
2. 0.1 to 1 µM
3. 0.1 to 1 µM
4. 1 to 10 µM
